// provenance: patent US9617276B2

- measured target: HIV-1 protease (Human immunodeficiency virus type 1 group M subtype B, UniProt P04585)
- Construct: A simple, continuous fluorometric assay for HIV protease
- test protocol: HIV protease enzyme inhibition, fluorometric assay of Toth and Marshall
- Assay type: biochemical
- assay conditions: read-out: Ki
property measured: Ki

Below, each entry is followed by its recorded Ki result.
{"molecule": "COc1ccc2c(c1)OCCCCCCCCCN(CC(O)C(Cc1ccccc1)NC(=O)OC1COC3OCCC13)S2(=O)=O (stereo not drawn) [Compound 15b]", "measured target": "HIV-1 protease (Human immunodeficiency virus type 1 group M subtype B, UniProt P04585)", "Ki": "< 0.7 nM"}
{"molecule": "C=CCCCCOc1cc(OC)ccc1S(=O)(=O)N(CC=C)CC(O)C(Cc1ccccc1)NC(=O)OC1COC2OCCC12 (stereo not drawn) [Compound 13e]", "measured target": "HIV-1 protease (Human immunodeficiency virus type 1 group M subtype B, UniProt P04585)", "Ki": "1.7 nM"}
{"molecule": "COc1ccc2c(c1)OCCCCC=CCC(C)CN(CC(O)C(Cc1ccccc1)NC(=O)OC1COC3OCCC13)S2(=O)=O (stereo not drawn) [Compound 21b]", "measured target": "HIV-1 protease (Human immunodeficiency virus type 1 group M subtype B, UniProt P04585)", "Ki": "2.8 nM"}
{"molecule": "C=CCCCCN(CC(O)C(Cc1ccccc1)NC(=O)OC1COC2OCCC12)S(=O)(=O)c1ccc(OC)cc1OCCCC=C (stereo not drawn) [Compound 13b]", "measured target": "HIV-1 protease (Human immunodeficiency virus type 1 group M subtype B, UniProt P04585)", "Ki": "11 nM"}

# molecule C=CCCCCOc1cc(OC)ccc1S(=O)(=O)N(CCCCC=C)CC(O)C(Cc1ccccc1)NC(=O)OC1COC2OCCC12 (stereo not drawn) [Compound 13a] ; its Ki = 16 nM

# molecule COc1ccc2c(c1)OCCCCC=CCC(C)CN(CC(O)C(Cc1ccccc1)NC(=O)OC1COC3OCCC13)S2(=O)=O (stereo not drawn) [Compound 20c] ; its Ki = 0.31 nM

----------
- System: HIV-1MDR/MM
- test protocol: microbe, parasite or virus in culture
- Assay type: cell-based
- assay conditions: Human immunodeficiency virus 1, read-out: EC50 (μM), HIV-1MDR/MM (NSI)
Label YES when EC50 is strictly below 0.2 µM; otherwise label NO.

Consider the worked cases shown below.
{"molecule": "COc1ccc2c(c1)OCCCC=CCCCCN(CC(O)C(Cc1ccccc1)NC(=O)OC1COC3OCCC13)S2(=O)=O (centres unmarked) [Compound 14b]", "label": "YES"}
{"molecule": "CC(C)CN(C[C@@H](O)[C@H](Cc1ccccc1)NC(=O)O[C@H]1CCOC1)S(=O)(=O)c1ccc(N)cc1", "label": "NO"}
{"molecule": "COC(=O)N[C@H](C(=O)N[C@@H](Cc1ccccc1)[C@@H](O)CN(Cc1ccc(-c2ccccn2)cc1)NC(=O)[C@@H](NC(=O)OC)C(C)(C)C)C(C)(C)C", "label": "YES"}
{"molecule": "COc1ccc2c(c1)OCCC=CCCCCN(CC(O)C(Cc1ccccc1)NC(=O)OC1COC3OCCC13)S2(=O)=O (centres unmarked) [Compound 14c]", "label": "YES"}
{"molecule": "CC(C)(C)NC(=O)[C@@H]1CN(Cc2cccnc2)CCN1C[C@@H](O)C[C@@H](Cc1ccccc1)C(=O)N[C@H]1c2ccccc2C[C@H]1O", "label": "NO"}

Exam item: Is the reported EC50 for CCC[C@@]1(CCc2ccccc2)CC(O)=C([C@H](CC)c2cccc(NS(=O)(=O)c3ccc(C(F)(F)F)cn3)c2)C(=O)O1 strictly below 0.2 µM?
Marked response: NO

Exam item: Is the reported EC50 for CC(C)(C)NC(=O)[C@@H]1C[C@@H]2CCCC[C@@H]2CN1C[C@@H](O)[C@H](Cc1ccccc1)NC(=O)[C@H](CC(N)=O)NC(=O)c1ccc2ccccc2n1 strictly below 0.2 µM?
Marked response: YES

Exam item: Is the reported EC50 for Cc1cccc(C)c1OCC(=O)N[C@@H](Cc1ccccc1)[C@@H](O)C[C@H](Cc1ccccc1)NC(=O)[C@H](C(C)C)N1CCCNC1=O strictly below 0.2 µM?
Marked response: NO

----------
// reported IC50 per item
- Test system: HIV-1
- test protocol: antiviral assay (IC50)
- Assay type: cell-based
- assay conditions: Table 4; read-out: IC50

{"compound": "COc1ccc2c(c1)OCCCCC=CCC(C)(C)CN(CC(O)C(Cc1ccccc1)NC(=O)OC1COC3OCCC13)S2(=O)=O (stereo not drawn) [Compound 21a]", "data value": "> 1000 nM"}
{"compound": "COc1ccc2c(c1)OCCCCCCCC(C)CN(CC(O)C(Cc1ccccc1)NC(=O)OC1COC3OCCC13)S2(=O)=O (stereo not drawn) [Compound 22c]", "data value": "< 100 nM"}

// returns IC50 for COc1ccc2c(c1)OCCCCC=CCC(C)CN(CC(O)C(Cc1ccccc1)NC(=O)OC1COC3OCCC13)S2(=O)=O (stereo not drawn) [Compound 21c] with HIV-1; value = < 100 nM

// returns IC50 for COc1ccc2c(c1)OCCCCC=CCC(C)CN(CC(O)C(Cc1ccccc1)NC(=O)OC1COC3OCCC13)S2(=O)=O (stereo not drawn) [Compound 20c] with HIV-1; value = < 10 nM

// returns IC50 for C=CCCCCOc1cc(OC)ccc1S(=O)(=O)N(CC(C)CC=C)C[C@@H](O)[C@H](Cc1ccccc1)NC(=O)O[C@H]1CO[C@H]2OCC[C@H]21 (single isomer, unassigned) [Compound 19b] with HIV-1; value = < 100 nM

// returns IC50 for COc1ccc2c(c1)OCCCCCCCC(C)CN(CC(O)C(Cc1ccccc1)NC(=O)OC1COC3OCCC13)S2(=O)=O (stereo not drawn) [Compound 22b] with HIV-1; value = < 1000 nM

----------
- test protocol: cytotoxicity CC50
- Assay type: cell-based, Human
- assay conditions: human; MT-2 cells; read-out: CC50
property measured: CC50

# compound CC(C)CN(C[C@@H](O)[C@H](Cc1ccccc1)NC(=O)O[C@H]1CCOC1)S(=O)(=O)c1ccc(N)cc1 [APV, Amprenavir] ; its CC50 = > 100 µM

----------
- test protocol: cytotoxicity CC50
- Type: cell-based, Human
- assay conditions: human
property measured: CC50

Below, each entry is followed by its recorded CC50 result.
{"compound": "COc1ccc2c(c1)OCCCC=CCCCCN(CC(O)C(Cc1ccccc1)NC(=O)OC1COC3OCCC13)S2(=O)=O (stereo not shown) [Compound 14b]", "CC50": "33.1 µM"}
{"compound": "Cc1cccc(C)c1OCC(=O)N[C@@H](Cc1ccccc1)[C@@H](O)C[C@H](Cc1ccccc1)NC(=O)[C@H](C(C)C)N1CCCNC1=O", "CC50": "> 100 µM"}
{"compound": "COc1ccc2c(c1)OCCC=CCCCCN(CC(O)C(Cc1ccccc1)NC(=O)OC1COC3OCCC13)S2(=O)=O (stereo not shown) [Compound 14c]", "CC50": "48.8 µM"}

Lab note: next compound to report on.
# compound COc1ccc2c(c1)OCC=CCCCCN(CC(O)C(Cc1ccccc1)NC(=O)OC1COC3OCCC13)S2(=O)=O (stereo not shown) [Compound 14d] ; its CC50 = 44.9 µM

----------
- measured target: HIV-1 protease (Human immunodeficiency virus type 1 group M subtype B, UniProt P04585)
- Construct: A simple, continuous fluorometric assay for HIV protease
- test protocol: HIV protease enzyme inhibition, fluorometric assay of Toth and Marshall
- Assay type: biochemical
- assay conditions: Table 1, acyclic compounds; read-out: Ki
pKi: −log10 of the molar value.
property measured: pKi

{"compound": "C=CCCCCOc1cc(OC)ccc1S(=O)(=O)N(CCCCC=C)CC(O)C(Cc1ccccc1)NC(=O)OC1COC2OCCC12 (stereo not shown) [Compound 13a]", "pKi": "> 7.00"}

# compound C=CCCCCOc1cc(OC)ccc1S(=O)(=O)N(CC=C)CC(O)C(Cc1ccccc1)NC(=O)OC1COC2OCCC12 (stereo not shown) [Compound 13e] ; its pKi = > 8.00

# compound C=CCCCCN(CC(O)C(Cc1ccccc1)NC(=O)OC1COC2OCCC12)S(=O)(=O)c1ccc(OC)cc1OCC=C (stereo not shown) [Compound 13d] ; its pKi = > 8.00

# compound C=CCCCCN(CC(O)C(Cc1ccccc1)NC(=O)OC1COC2OCCC12)S(=O)(=O)c1ccc(OC)cc1OCCC=C (stereo not shown) [Compound 13c] ; its pKi = > 8.00

# compound C=CCCOc1cc(OC)ccc1S(=O)(=O)N(CC=C)CC(O)C(Cc1ccccc1)NC(=O)OC1COC2OCCC12 (stereo not shown) [Compound 13g] ; its pKi = > 9.00

# compound C=CCCCCN(CC(O)C(Cc1ccccc1)NC(=O)OC1COC2OCCC12)S(=O)(=O)c1ccc(OC)cc1OCCCC=C (stereo not shown) [Compound 13b] ; its pKi = > 7.00

# compound C=CCCCOc1cc(OC)ccc1S(=O)(=O)N(CC=C)CC(O)C(Cc1ccccc1)NC(=O)OC1COC2OCCC12 (stereo not shown) [Compound 13f] ; its pKi = > 9.00
